# Assay notes: activators of adaptive XBP1 UPR arm, primary screen, cell-based, CHO-XBP1 luciferase reporter, luminescence, uHTS (AID 463104);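 also: 100% = tunicamycin at 10 µg/mL and 0% = DMSO only wells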
# Particulars: IRE1-XBP1 UPR activation, at 20 µM, active compounds read high, percent of tunicamycin response, DMSO as zero
The whole screen tested about 330,000 compounds, of which about 1,100 (0.33%) were called active. The full list was thinned out, with actives kept by preference.
Exercise: for every item that follows, state its recorded activation.
Give bare numbers, in %.

{"Compound": "CC(=O)C1(C)N(O)C(C)(C)C(c2cccs2)=[N+]1[O-] (centres undefined)", "Unit text": "%", "activation": -1.47}
{"Compound": "CC(C)(C)OC(=O)C[C@H]1C/C=C\\C[C@@H](CC(=O)N[C@H](CO)Cc2ccccc2)C(=O)NC[C@@H](c2ccccc2)OC1=O", "Unit text": "%", "activation": 5.5}
{"Compound": "CCc1nc(C)cn1S(=O)(=O)c1cc(OC)c(C)cc1C", "Unit text": "%", "activation": -2.38}
{"Compound": "Cc1ccc(-n2c(O)c(C=Nc3ccc(S(=O)(=O)Nc4ncccn4)cc3)c3ccccc3c2=O)cc1C", "Unit text": "%", "activation": -1.86}
{"Compound": "O=C(C[C@H]1C/C=C\\C[C@@H](NC(=O)OCC2c3ccccc3-c3ccccc32)C(=O)O[C@@H](c2ccccc2)CNC1=O)N[C@H](CO)Cc1ccccc1", "Unit text": "%", "activation": 100}
{"Compound": "Cc1ccc(-c2ccc(/C=C(\\C#N)C(N)=S)o2)c([N+](=O)[O-])c1", "Unit text": "%", "activation": -0.81}
{"Compound": "COC(=O)Cc1csc(Nc2c(C)n(C)n(-c3ccccc3)c2=O)n1", "Unit text": "%", "activation": -0.87}
{"Compound": "CN(c1cccc(NC(=O)c2ccc(CN3CCc4ccccc4C3)cc2)c1)S(C)(=O)=O", "Unit text": "%", "activation": -1.68}

Next up:
[ask] Name the reported activation value associated with the compound COC(=O)Cc1csc(/N=C/c2c(O)n(-c3cccc(C(F)(F)F)c3)c(=O)c3ccccc23)n1
[reply] 46.3

* * *

Exercise: for every item that follows, state its recorded activation.
# Assay notes: activators of adaptive XBP1 UPR arm, primary screen, cell-based, CHO-XBP1 luciferase reporter, luminescence, uHTS (AID 463104);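 also: 100% = tunicamycin at 10 µg/mL and 0% = DMSO only wells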
# Particulars: IRE1-XBP1 UPR activation, at 20 µM, active compounds read high, percent of tunicamycin response, DMSO as zero
About 1,100 (0.33%) of roughly 330,000 compounds were called active. For the sample, actives were picked, then their nearest neighbours and some compounds at random.
One number for each entry, in %.

{"Compound": "O=c1c2ccccc2nc2n1C(CSCc1cccc(C(F)(F)F)c1)CS2 (stereo not given)", "Unit text": "%", "Quantitative result": -4.03}

# return activation for each item in the list
1. COc1ccc(C(=O)N2CCN(c3ncccn3)CC2)cc1S(=O)(=O)N1CCOCC1
2. COc1ccc(-c2cc(=O)oc3cc(OCC(=O)N(C)C4CCS(=O)(=O)C4)ccc23)cc1 (stereo not given)
3. CC(C)=CCCC1(C)C=Cc2c(ccc3c2[nH]c2cc(O)c(C)cc23)O1 (stereo not given)
4. Cc1ccc(CC2S/C(=C(/C#N)C(=O)N3CCOCC3)N(c3ccccc3)C2=O)cc1 (stereo not given)
5. CCCOc1cccc(C(=O)Nc2nnn(CCC)n2)c1
6. N#CCC(=O)N/N=C/c1cn(Cc2ccc3ccccc3c2)c2ccccc12
7. N#Cc1ccc(Oc2ccc(C(F)(F)F)cc2NC(=O)c2ccc(F)cc2)cc1
8. Cc1ccc(SC(=O)COc2ccc(C)c(C)c2)cc1

[reply]
1.37
-1.57
46.1
-1.89
0.81
77.3
0.22
65.8

[ask] Name the reported activation value associated with the compound Cc1cccc(OCCCC(=O)Nc2ccc(S(=O)(=O)N3CCCC3)cc2)c1
[reply] -0.19

* * *

# Assay notes: activators of adaptive XBP1 UPR arm, primary screen, cell-based, CHO-XBP1 luciferase reporter, luminescence, uHTS (AID 463104);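 also: 100% = tunicamycin at 10 µg/mL and 0% = DMSO only wells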
# Particulars: IRE1-XBP1 UPR activation, at 20 µM, active compounds read high, percent of tunicamycin response, DMSO as zero
Out of some 330,000 compounds screened, about 1,100 (0.33%) were called active. The sample as a whole holds a higher share of actives than the screen did.
Readout type: activation (%)
Answers are plain numbers, in %.

{"Mol smiles": "c1ccc(-c2ccnc3nc(-n4cccc4)nn23)cc1", "Unit text": "%", "Quantitative result": 0.42}
{"Mol smiles": "CSc1nc(-c2ccccc2)nc(C(Cl)Cl)n1", "Unit text": "%", "Quantitative result": 31.3}
{"Mol smiles": "COCCNC(=O)c1ccc2c(c1)ncn2-c1ccc(C)c(Cl)c1", "Unit text": "%", "Quantitative result": -1.46}
{"Mol smiles": "Cc1ccc(C)c(N2CCN(C(=O)CCCCCn3c(=S)[nH]c4ccc(N5CCOCC5)cc4c3=O)CC2)c1", "Unit text": "%", "Quantitative result": -5.18}
{"Mol smiles": "CSc1ncc(Sc2ccccc2)c(C(=O)O)n1", "Unit text": "%", "Quantitative result": -3.45}

[ask] Name the reported activation value associated with the compound CCCNC(=O)CCn1nc(-c2ccccc2)c2ccccc2c1=O
[reply] 1.25

* * *

# Assay notes: activators of adaptive XBP1 UPR arm, primary screen, cell-based, CHO-XBP1 luciferase reporter, luminescence, uHTS (AID 463104);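 also: 100% = tunicamycin at 10 µg/mL and 0% = DMSO only wells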
# Particulars: IRE1-XBP1 UPR activation, at 20 µM, active compounds read high, percent of tunicamycin response, DMSO as zero
About 1,100 (0.33%) of roughly 330,000 compounds were called active. For the sample, actives were picked, then their nearest neighbours and some compounds at random.
Readout type: activation (%)
Numbers only, in %.

{"Molecule": "COc1ccc(NC(=O)/C(C#N)=C\\c2cc(OC)c(OCc3ccc(C(=O)O)cc3)cc2Br)cc1", "Unit text": "%", "activation": -2.72}

# return activation for each item in the list
1. CCOC(=O)/C=c1\s/c(=C\c2ccc(C#N)cc2)c(=O)n1CC(=O)Nc1cccc(C)c1C
2. CN1C(=O)/C(=C/c2ccc(C(=O)NC3CCCC3)cc2)Oc2ccccc21
3. Cc1csc(NC(=O)C2CCCN2C(=O)OCC(C)C)n1 (centres undefined)
4. O=C(NCCCN1CCCCC1)c1ccc2c(c1)NC(=O)C(N1CCOCC1)S2 (centres undefined)
5. CCc1nn(-c2cc(Oc3cccc4ccccc34)nc(-c3ccccc3)n2)c(N)c1C#N
6. Cc1cccc(Nc2nc3c(S(=O)(=O)c4ccccc4)nnn3c3ccccc23)c1C
7. CCCCC(O)(CCCC)C(=O)NN(C(=O)CCl)c1ccccc1
8. CN(CC(=O)Nc1cccc(F)c1)C(=O)C1CSC2(C)CCC(=O)N12 (centres undefined)

[reply]
217
33.7
-2.24
-1.68
79.6
94
-0.49
2.87

# return activation for each item in the list
1. CN(C)C(=O)CCc1ccc2c3c([nH]c2c1)[C@]1(C)[C@@H](C(=O)N2CCCCC2)C[C@H](CC(=O)NCCC2=CCCCC2)C(=O)N1CC3
2. Cc1ccc(S(=O)(=O)c2nnn3c2nc(N2CCN(c4ccccn4)CC2)c2ccccc23)cc1
3. CC(C)N(C(=O)[C@H]1C[C@H](CC(=O)NCCC2=CCCCC2)C(=O)N2CCc3c([nH]c4cc(CCC(=O)N(C)C)ccc34)[C@]12C)C(C)C
4. Cc1ccc(C)c(NC(=O)c2ccc3nccnc3c2)c1

[reply]
[-0.99, -2.5, -2.39, 0.85]

# return activation for each item in the list
1. Cc1ccc(CSCCNC(=O)CN(c2ccc(F)cc2)S(C)(=O)=O)cc1
2. CN1CCN(CCCNC(=O)c2ccc(/C=C3\Oc4ccccc4N(Cc4ccc(Cl)cc4)C3=O)cc2)CC1
3. N#C/C(=C\c1ccc(O)c(O)c1)C(=O)NCc1ccccc1
4. Cc1ccc(CS(=O)(=O)CCC(=O)NCc2ccc(F)cc2)cc1
5. CC(=O)Nc1ccc(Nc2nc3c(S(=O)(=O)c4ccc(C)c(C)c4)nnn3c3ccccc23)cc1

[reply]
[-2.57, 13.7, 21.5, -1.62, 3.91]

[ask] Name the reported activation value associated with the molecule COc1ccccc1N(CC(=O)N/N=C(\C)c1ccccc1O)S(=O)(=O)c1ccc(C)cc1
[reply] -4.87

* * *

# Assay notes: activators of adaptive XBP1 UPR arm, primary screen, cell-based, CHO-XBP1 luciferase reporter, luminescence, uHTS (AID 463104);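 also: 100% = tunicamycin at 10 µg/mL and 0% = DMSO only wells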
# Particulars: IRE1-XBP1 UPR activation, at 20 µM, active compounds read high, percent of tunicamycin response, DMSO as zero
The whole screen tested about 330,000 compounds, of which about 1,100 (0.33%) were called active. Only a selection was taken, and actives are over-represented in it overall.
Exercise: for every item that follows, state its recorded activation.
Numbers only, in %.

Answered cases to consult:
{"Compound": "Cc1ccc(Nc2nc(N)nc(CSc3nnc(C)s3)n2)cc1", "Unit text": "%", "Quantitative result": 3.11}
{"Compound": "Cn1c(SCC(=O)N/N=C/c2ccc(O)c(O)c2)nc2ccccc21", "Unit text": "%", "Quantitative result": 20.8}
{"Compound": "CC(Cc1cccs1)N(Cc1ccc(Cl)cc1)C(=O)c1ccncc1 (stereo not drawn)", "Unit text": "%", "Quantitative result": -2.77}

# return activation for each item in the list
1. CCC1CCC/C1=N\NC(=O)c1ccc(Cl)cc1 (stereo not drawn)
2. CC(=O)OCCN(CCCn1c(-c2ccncc2)nc2ccccc21)c1nc(-c2ccc(C)cc2)cs1
3. COc1ccccc1C(=O)NCCC(=O)NCC(c1ccco1)N1CCCCC1 (stereo not drawn)
4. CCOC(=O)c1c(NC(=O)CNC2CCCc3ccccc32)sc(C(N)=O)c1C (stereo not drawn)
5. COc1ccc(Nc2cc(C)nc(-n3nc(C)cc3C)n2)cc1

[reply]
[2.16, -1.12, -0.9, 39.6, 121]

# return activation for each item in the list
1. O=C(/C=C/c1ccccc1)c1ccccc1O
2. Nc1nc(CC(=O)CSc2ccc(Cl)cc2)nc(Nc2ccc(F)cc2)n1
3. Cc1cc(C)c(C#N)c(SCC(=O)Nc2ccccc2)n1
4. CCC(C(=O)N1CCN(S(=O)(=O)c2sc(C(=O)O)c(C)c2C(=O)O)CC1)c1ccccc1 (stereo not drawn)
5. CCOC(=O)c1c(NC(=O)CCl)sc(C(=O)N(CC)CC)c1C

[reply]
1: 78.8; 2: 75; 3: -0.84; 4: -0.89; 5: 11.5

# return activation for each item in the list
1. O=C(NCC1(N2CCCCC2)CCCCC1)c1ccc(NS(=O)(=O)c2ccc(F)cc2)cc1
2. CN(C)CCCN(C(=O)c1ccc(S(=O)(=O)N2CCCCCC2)cc1)c1nc2ccc(Br)cc2s1
3. COc1ccc2sc(N(CCCN(C)C)C(=O)c3ccc(S(=O)(=O)N(C)C4CCCCC4)cc3)nc2c1
4. COC(=O)c1ccc(COc2ccc(/C=N/NC(=O)C(=O)Nc3ccc(OC)cc3)cc2OC)o1
5. CCOC(=O)N1CCC(O)(c2cc(C)c(C)cc2C)CC1

[reply]
0.16
46.6
1.32
-0.77
0.36

Values were extracted from PubChem BioAssay AID463104.
